test system: Escherichia coli TOP10; assay: shrunken log2 fold change of peptide-encoding DNA abundance (4.5 h post-induction vs induction); higher = less antimicrobial activity (less host growth inhibition); conditions: time post-induction: 4.5 h; library: site-saturation at positions 5, 18, 19, 20
Tick satisfied if shrunken log2 fold change is -0.04 or greater. Tick not satisfied if shrunken log2 fold change is less than -0.04.

ITEM SEQUENCE: RRIRHRPPRLPRPRPRPYYAPRP
MEASURED TARGET: Escherichia coli TOP10
ASSIGNED CLASS: not satisfied
--
ITEM SEQUENCE: RRIRYRPPRLPRPRPRPSMWPRP
MEASURED TARGET: Escherichia coli TOP10
ASSIGNED CLASS: not satisfied
--
ITEM SEQUENCE: RRIRERPPRLPRPRPRPMTGPRP
MEASURED TARGET: Escherichia coli TOP10
ASSIGNED CLASS: not satisfied
--
ITEM SEQUENCE: RRIRNRPPRLPRPRPRPCNNPRP
MEASURED TARGET: Escherichia coli TOP10
ASSIGNED CLASS: satisfied
--
ITEM SEQUENCE: RRIRRRPPRLPRPRPRPSTEPRP
MEASURED TARGET: Escherichia coli TOP10
ASSIGNED CLASS: satisfied
--
ITEM SEQUENCE: RRIRCRPPRLPRPRPRPHAMPRP
MEASURED TARGET: Escherichia coli TOP10
ASSIGNED CLASS: not satisfied
--
ITEM SEQUENCE: RRIRPRPPRLPRPRPRPPDPPRP
MEASURED TARGET: Escherichia coli TOP10
ASSIGNED CLASS: satisfied
--
ITEM SEQUENCE: RRIRMRPPRLPRPRPRPSVVPRP
MEASURED TARGET: Escherichia coli TOP10
ASSIGNED CLASS: satisfied
--
ITEM SEQUENCE: RRIRMRPPRLPRPRPRPYVVPRP
MEASURED TARGET: Escherichia coli TOP10
ASSIGNED CLASS: satisfied
--
ITEM SEQUENCE: RRIRDRPPRLPRPRPRPLNDPRP
MEASURED TARGET: Escherichia coli TOP10
ASSIGNED CLASS: not satisfied
--
ITEM SEQUENCE: RRIRGRPPRLPRPRPRPVATPRP
MEASURED TARGET: Escherichia coli TOP10
ASSIGNED CLASS: satisfied
--
ITEM SEQUENCE: RRIRVRPPRLPRPRPRPWSTPRP
MEASURED TARGET: Escherichia coli TOP10
ASSIGNED CLASS: satisfied
--
ITEM SEQUENCE: RRIRPRPPRLPRPRPRPINIPRP
MEASURED TARGET: Escherichia coli TOP10
ASSIGNED CLASS: not satisfied
--
ITEM SEQUENCE: RRIRPRPPRLPRPRPRPVTIPRP
MEASURED TARGET: Escherichia coli TOP10
ASSIGNED CLASS: not satisfied
--
ITEM SEQUENCE: RRIRYRPPRLPRPRPRPKQKPRP
MEASURED TARGET: Escherichia coli TOP10
ASSIGNED CLASS: not satisfied

====

tested on: Escherichia coli TOP10; test: shrunken log2 fold change of peptide-encoding DNA abundance (4.5 h post-induction vs induction); higher = less antimicrobial activity (less host growth inhibition); conditions: time post-induction: 4.5 h; library: site-saturation at positions 5, 18, 19, 20;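 further: peptides expressed intracellularly from a pBAD plasmid library in pooled LB shake-flask culture, induced with 0.3% L-arabinose, DNA abundance read by NGS, three biological replicates, DESeq2 with apeglm shrinkage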

ITEM SEQUENCE: RRIRARPPRLPRPRPRPNCKPRP
shrunken log2 fold change: -0.0213

ITEM SEQUENCE: RRIRHRPPRLPRPRPRPVPDPRP
shrunken log2 fold change: -0.526

ITEM SEQUENCE: RRIRGRPPRLPRPRPRPRSVPRP
shrunken log2 fold change: 0.662

ITEM SEQUENCE: RRIRSRPPRLPRPRPRPEYRPRP
shrunken log2 fold change: 0.2

ITEM SEQUENCE: RRIRQRPPRLPRPRPRPLNCPRP
shrunken log2 fold change: -0.0264

ITEM SEQUENCE: RRIRERPPRLPRPRPRPLKPPRP
shrunken log2 fold change: -0.16

ITEM SEQUENCE: RRIRKRPPRLPRPRPRPWPKPRP
shrunken log2 fold change: 0.274

ITEM SEQUENCE: RRIRYRPPRLPRPRPRPQTNPRP
shrunken log2 fold change: -0.711

ITEM SEQUENCE: RRIRTRPPRLPRPRPRPANSPRP
shrunken log2 fold change: -0.119

ITEM SEQUENCE: RRIRCRPPRLPRPRPRPPSEPRP
shrunken log2 fold change: 0.102

ITEM SEQUENCE: RRIRFRPPRLPRPRPRPGLIPRP
shrunken log2 fold change: -0.0301

ITEM SEQUENCE: RRIRVRPPRLPRPRPRPVPHPRP
shrunken log2 fold change: 0.135

ITEM SEQUENCE: RRIRLRPPRLPRPRPRPNGTPRP
shrunken log2 fold change: -0.221

ITEM SEQUENCE: RRIRPRPPRLPRPRPRPKPGPRP
shrunken log2 fold change: 0.684

ITEM SEQUENCE: RRIRFRPPRLPRPRPRPSDSPRP
shrunken log2 fold change: -0.21

ITEM SEQUENCE: RRIRQRPPRLPRPRPRPFAMPRP
shrunken log2 fold change: -0.132

ITEM SEQUENCE: RRIRIRPPRLPRPRPRPRAQPRP
shrunken log2 fold change: 0.27

ITEM SEQUENCE: RRIRFRPPRLPRPRPRPTTHPRP
shrunken log2 fold change: -0.0585

ITEM SEQUENCE: RRIRSRPPRLPRPRPRPDTHPRP
shrunken log2 fold change: -0.448

ITEM SEQUENCE: RRIRFRPPRLPRPRPRPVYCPRP
shrunken log2 fold change: -0.408

ITEM SEQUENCE: RRIRSRPPRLPRPRPRPWIEPRP
shrunken log2 fold change: -0.0567

ITEM SEQUENCE: RRIRYRPPRLPRPRPRPEWVPRP
shrunken log2 fold change: -0.0265

ITEM SEQUENCE: RRIRVRPPRLPRPRPRPGFSPRP
shrunken log2 fold change: -0.101

ITEM SEQUENCE: RRIRERPPRLPRPRPRPFRLPRP
shrunken log2 fold change: -0.51

ITEM SEQUENCE: RRIRNRPPRLPRPRPRPRGGPRP
shrunken log2 fold change: 0.474

ITEM SEQUENCE: RRIRQRPPRLPRPRPRPKRVPRP
shrunken log2 fold change: -0.154

ITEM SEQUENCE: RRIRRRPPRLPRPRPRPLAYPRP
shrunken log2 fold change: -0.00715

ITEM SEQUENCE: RRIRARPPRLPRPRPRPQCSPRP
shrunken log2 fold change: 0.111

ITEM SEQUENCE: RRIRVRPPRLPRPRPRPSYTPRP
shrunken log2 fold change: -0.27

ITEM SEQUENCE: RRIRERPPRLPRPRPRPDGRPRP
shrunken log2 fold change: -0.03

ITEM SEQUENCE: RRIRFRPPRLPRPRPRPCLYPRP
shrunken log2 fold change: -0.881

ITEM SEQUENCE: RRIRRRPPRLPRPRPRPCMAPRP
shrunken log2 fold change: 0.61
